Hey, just so you know, these numbers are from patent US4406899A.

Recorded AUC for the following compounds
- assayText: Blood levels after single intramuscular administration to mice
- conditionNotes: mouse, blood, im, 20 mg/kg
Write it as a number; the unit ng·h/mL goes unstated.

>>> df
                                   compound  unitannotation  endpointvalue
0  CC(C)(O/N=C(\C(=O)N[C@@H]1C(=O)N2C(C(=O)[O-])=C(C[n+]3ccccc3)CS[C@H]12)c1csc(N)n1)C(=O)O [Ceftazidime]         ng·h/mL          13800
1  CO/N=C(\C(=O)NC1C(=O)N2C(C(=O)[O-])=C(C[N+]3(C)CCCC3)CSC12)c1csc(N)n1 (stereo not drawn) [Compound Ia]         ng·h/mL          13500

Ask: I would be grateful if you could share the reported AUC for CO/N=C(\C(=O)N[C@@H]1C(=O)N2C(C(=O)O)=C(COC(C)=O)CS[C@H]12)c1csc(N)n1 [Cefotaxime] .
Reply: 14900

---

- assayText: Blood levels after single intramuscular administration to mice
- conditionNotes: mouse, blood, im, 20 mg/kg
// reported concentration at 10 min for each item listed
Provide the reading as a plain figure in ng/mL.

>>> print(df.to_string())
                                   compound                 property  endpointvalue
0  CO/N=C(\C(=O)N[C@@H]1C(=O)N2C(C(=O)O)=C(COC(C)=O)CS[C@H]12)c1csc(N)n1 [Cefotaxime]  concentration at 10 min          27800
1  CC(C)(O/N=C(\C(=O)N[C@@H]1C(=O)N2C(C(=O)[O-])=C(C[n+]3ccccc3)CS[C@H]12)c1csc(N)n1)C(=O)O [Ceftazidime]  concentration at 10 min          21500

Then this compound:
Ask: Fill blank: measured concentration at 10 min of the compound CO/N=C(\C(=O)NC1C(=O)N2C(C(=O)[O-])=C(C[N+]3(C)CCCC3)CSC12)c1csc(N)n1 (stereo not drawn) [Compound Ia] is ____.
Reply: 20700

---

- assayText: Blood levels after single intramuscular administration to mice
- conditionNotes: mouse, blood, im, 20 mg/kg
Below, each entry is listed with its recorded concentration at 1 h.
The answer is to be given in ng/mL; state only the numeric part.

>>> print(df.to_string())
                                   molecule  endpointvalue
0  CO/N=C(\C(=O)N[C@@H]1C(=O)N2C(C(=O)O)=C(COC(C)=O)CS[C@H]12)c1csc(N)n1           4600
1  CO/N=C(\C(=O)NC1C(=O)N2C(C(=O)[O-])=C(C[N+]3(C)CCCC3)CSC12)c1csc(N)n1 (stereo not drawn)           4000

Ask: Query: concentration at 1 h; subject: CC(C)(O/N=C(\C(=O)N[C@@H]1C(=O)N2C(C(=O)[O-])=C(C[n+]3ccccc3)CS[C@H]12)c1csc(N)n1)C(=O)O
Reply: 4400

---

- Tested on: Ps. aeruginosa (6 strains)
- assayText: MIC, two-fold serial agar dilution, group (G-)-III
- Type: cell-based
- conditionNotes: Pseudomonas aeruginosa; Mueller-Hinton agar; Ps. aeruginosa; read-out: Geometric Mean of MIC (G-)-III (6)
property: MIC
The answer should read as a number with its unit following.

Below, each entry is followed by its recorded MIC result.
                                   molecule  endpointvalue
0  CO/N=C(\C(=O)N[C@@H]1C(=O)N2C(C(=O)O)=C(COC(C)=O)CS[C@H]12)c1csc(N)n1 [Cefotaxime]       22 µg/mL
1  CCO/N=C(\C(=O)NC1C(=O)N2C(C(=O)[O-])=C(C[N+]3(C)CCCC3)CSC12)c1csc(N)n1 (centres unmarked) [Ib]      5.6 µg/mL

Ask: Value lookup for MIC; key = CC(C)O/N=C(\C(=O)NC1C(=O)N2C(C(=O)[O-])=C(C[N+]3(C)CCCC3)CSC12)c1csc(N)n1 (centres unmarked) [Compound Ic]
Reply: 11 µg/mL

Ask: // returns reported MIC for input CO/N=C(\C(=O)NC1C(=O)N2C(C(=O)[O-])=C(C[N+]3(C)CCCC3)CSC12)c1csc(N)n1 (centres unmarked) [Compound Ia]
Reply: 2.8 µg/mL

Ask: Item under review: C=CCO/N=C(\C(=O)NC1C(=O)N2C(C(=O)[O-])=C(C[N+]3(C)CCCC3)CSC12)c1csc(N)n1 (centres unmarked) [Id] . Reported MIC?
Reply: 13 µg/mL

---

- assayText: Blood levels after single intramuscular administration to mice
- conditionNotes: mouse, blood, im, 20 mg/kg
- Description: Blood samples were collected from the orbital sinuses into heparinized capillary tubes and assayed in Mueller-Hinton medium using Morganella morganii A9695 as the test organism.
property: half-life

In [3]: df
Out[3]:
                            structurestring  endpointvalue
0  CC(C)(O/N=C(\C(=O)N[C@@H]1C(=O)N2C(C(=O)[O-])=C(C[n+]3ccccc3)CS[C@H]12)c1csc(N)n1)C(=O)O         17 min

Shifting focus to the molecule that follows.
Ask: Need half-life of CO/N=C(\C(=O)N[C@@H]1C(=O)N2C(C(=O)O)=C(COC(C)=O)CS[C@H]12)c1csc(N)n1 , thanks.
Reply: 15 min

---

- assayText: Blood levels after single intramuscular administration to mice
- conditionNotes: mouse, blood, im, 20 mg/kg
property: concentration at 20 min (ng/mL)
Number in ng/mL, nothing else.

// worked examples, concentration at 20 min included
>>> df
                                   compound                 property  unitannotation  endpointvalue
0  CC(C)(O/N=C(\C(=O)N[C@@H]1C(=O)N2C(C(=O)[O-])=C(C[n+]3ccccc3)CS[C@H]12)c1csc(N)n1)C(=O)O [Ceftazidime]  concentration at 20 min           ng/mL          18400
1  CO/N=C(\C(=O)N[C@@H]1C(=O)N2C(C(=O)O)=C(COC(C)=O)CS[C@H]12)c1csc(N)n1 [Cefotaxime]  concentration at 20 min           ng/mL          19300

Now consider a different compound.
Ask: Recorded concentration at 20 min of CO/N=C(\C(=O)NC1C(=O)N2C(C(=O)[O-])=C(C[N+]3(C)CCCC3)CSC12)c1csc(N)n1 (stereo not drawn) [Compound Ia] , please.
Reply: 19600

---

- assayText: Blood levels after single intramuscular administration to mice
- conditionNotes: mouse, blood, im, 20 mg/kg
property: concentration at 0.75 h
Remember to quote the unit after the number.

Reference set, count: 2
>>> df
                                   compound  endpointvalue
0  CO/N=C(\C(=O)N[C@@H]1C(=O)N2C(C(=O)O)=C(COC(C)=O)CS[C@H]12)c1csc(N)n1     9100 ng/mL
1  CO/N=C(\C(=O)NC1C(=O)N2C(C(=O)[O-])=C(C[N+]3(C)CCCC3)CSC12)c1csc(N)n1 (stereo not drawn)     8800 ng/mL

Turning to the following compound.
Ask: For CC(C)(O/N=C(\C(=O)N[C@@H]1C(=O)N2C(C(=O)[O-])=C(C[n+]3ccccc3)CS[C@H]12)c1csc(N)n1)C(=O)O , what is its reported concentration at 0.75 h?
Reply: 8700 ng/mL
